Target: T1, c-erbB-2 ECD with a Ser-Gly-His6 C-terminal fusion (UniProt P04626 23-652)
T1 construct: extracellular domain; Expressed from CHO cells, IMAC purified; coupled to a CM5 chip, coated on plates, or biotinylated with NHS-LC-biotin; also called c-erbB-2 extracellular domain; biotinylated c-erbB-2 ECD
Measurement description: SPR BIAcore
Parameter: koff (s⁻¹)

# Binder, Parameter, Unit label, Endpoint result
measured = [
    ("C6MH3-B1 (scFv, C6ML3-9 sFv, VH CDR3 library B mutant; also called CH3-B1) scFv: QVQLLQSGAELKKPGESLKISCKGSGYSFTSYWIAWVRQMPGKGLEYMGLIYPGDSDTKYSPSFQGQVTISVDKSVSTAYLQWSSLKPSDSAVYFCARHDVGYCTDRTCAKWPEYFQHWGQGTLVTVSSGGGGSGGGGSGGGGSQSVLTQPPSVSAAPGQKVTISCSGSSSNIGNNYVSWYQQLPGTAPKLLIYGHTNRPAGVPDRFSGSKSGTSASLAISGFRSEDEADYYCASWDYTLSGWVFGGGTKLTVLG", "koff", "s⁻¹", "6.7e-05"),
    ("C6MH3-B25 (scFv, C6ML3-9 sFv, VH CDR3 library B mutant) scFv: QVQLLQSGAELKKPGESLKISCKGSGYSFTSYWIAWVRQMPGKGLEYMGLIYPGDSDTKYSPSFQGQVTISVDKSVSTAYLQWSSLKPSDSAVYFCARHDVGYCLTTRCAKWPEYFQHWGQGTLVTVSSGGGGSGGGGSGGGGSQSVLTQPPSVSAAPGQKVTISCSGSSSNIGNNYVSWYQQLPGTAPKLLIYGHTNRPAGVPDRFSGSKSGTSASLAISGFRSEDEADYYCASWDYTLSGWVFGGGTKLTVLG", "koff", "s⁻¹", 0.00019),
    ("C6MH3-D3 (scFv, C6ML3-9 sFv, VH CDR3 library D mutant) scFv: QVQLLQSGAELKKPGESLKISCKGSGYSFTSYWIAWVRQMPGKGLEYMGLIYPGDSDTKYSPSFQGQVTISVDKSVSTAYLQWSSLKPSDSAVYFCARHDVGYCSSSNCAKWPEWLDNWGQGTLVTVSSGGGGSGGGGSGGGGSQSVLTQPPSVSAAPGQKVTISCSGSSSNIGNNYVSWYQQLPGTAPKLLIYGHTNRPAGVPDRFSGSKSGTSASLAISGFRSEDEADYYCASWDYTLSGWVFGGGTKLTVLG", "koff", "s⁻¹", 0.00025),
    ("C6MH3-B16 (scFv, C6ML3-9 sFv, VH CDR3 library B mutant) scFv: QVQLLQSGAELKKPGESLKISCKGSGYSFTSYWIAWVRQMPGKGLEYMGLIYPGDSDTKYSPSFQGQVTISVDKSVSTAYLQWSSLKPSDSAVYFCARHDVGYCADVRCAKWPEYFQHWGQGTLVTVSSGGGGSGGGGSGGGGSQSVLTQPPSVSAAPGQKVTISCSGSSSNIGNNYVSWYQQLPGTAPKLLIYGHTNRPAGVPDRFSGSKSGTSASLAISGFRSEDEADYYCASWDYTLSGWVFGGGTKLTVLG", "koff", "s⁻¹", 0.00028),
    ("C6MH3-C4 (scFv, C6ML3-9 sFv, VH CDR3 library C mutant; also called mutant sFv K100gV) scFv: QVQLLQSGAELKKPGESLKISCKGSGYSFTSYWIAWVRQMPGKGLEYMGLIYPGDSDTKYSPSFQGQVTISVDKSVSTAYLQWSSLKPSDSAVYFCARHDVGYCSSSNCAVWPEYFQHWGQGTLVTVSSGGGGSGGGGSGGGGSQSVLTQPPSVSAAPGQKVTISCSGSSSNIGNNYVSWYQQLPGTAPKLLIYGHTNRPAGVPDRFSGSKSGTSASLAISGFRSEDEADYYCASWDYTLSGWVFGGGTKLTVLG", "koff", "s⁻¹", 0.0002),
]
